Target: human TGR5 receptor (Homo sapiens)
Sequence (Q8TDU6 1-330): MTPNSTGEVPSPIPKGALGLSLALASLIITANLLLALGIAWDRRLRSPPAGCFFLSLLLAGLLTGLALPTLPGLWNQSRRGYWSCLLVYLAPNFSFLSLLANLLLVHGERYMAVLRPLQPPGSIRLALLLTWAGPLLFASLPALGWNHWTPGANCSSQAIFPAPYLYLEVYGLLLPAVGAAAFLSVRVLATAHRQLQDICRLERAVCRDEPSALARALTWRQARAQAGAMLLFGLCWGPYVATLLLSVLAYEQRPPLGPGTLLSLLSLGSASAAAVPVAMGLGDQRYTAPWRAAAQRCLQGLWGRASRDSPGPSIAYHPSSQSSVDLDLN
Test: Human TGR5 cAMP production assay (hTGR5-CHO cells, DiscoveRx cAMP XS+ kit)
Conditions: luminescent cAMP assay, read-out: Human TGR5 Lum. cAMP Activity (EC50)
pEC50: −log10 of the molar value.
QUANTITY: pEC50

Some solved cases for reference:
COc1ccc(-c2cc(N3CCC[C@H]3C(=O)NCCc3ccc(C#N)cc3)nc(C(F)(F)F)n2)cc1OC    6.00 to 7.00
N#Cc1ccc(CCNC(=O)[C@@H]2CCCN2c2cc(N3CCC(CCCC(=O)N[C@@H](CCCNC(=N)N)C(=O)O)CC3)nc(C(F)(F)F)n2)cc1    > 7.00
N#Cc1ccc(CCNC(=O)[C@@H]2CCCN2c2cc(N3CCC(CN)CC3)nc(C(F)(F)F)n2)cc1    > 7.00
N#Cc1ccc(CCNC(=O)[C@@H]2CCCN(c3cc(N4CCN(CCO)CC4)nc(C(F)(F)F)n3)C2)cc1    6.00 to 7.00

For the compound `CC(=O)NCCNc1cc(N2CCC[C@@H](C(=O)NCCc3ccc(C(F)(F)F)cc3)C2)nc(C(F)(F)F)n1` , report pEC50. 4.52 to 6.00

For the compound `N#Cc1ccc(CCNC(=O)[C@@H]2CCCN2c2cc(-c3ccc(CCC(=O)N[C@@H](CCCNC(=N)N)C(=O)O)cc3)cc(C(F)(F)F)n2)cc1` , report pEC50. 6.00 to 7.00

Provenance of the data: patent US10654834B2
